assayed system: Gal3S(b1-4)[Fuc(a1-3)]GlcNAc
experiment notes: glycan array binding signal (z-score within array); higher = stronger binding
study conditions: glycan notation: IUPAC condensed, linker removed
This excerpt belongs to a sample that is enriched for the strongest signals.
experimental endpoint: glycan array binding signal (z-score)
# print the numeric value only

// known answers, use as guide
binder	observed
AAA (Anguilla anguilla), Q7SIC1 (protein) VIPEGYTQENVAVRGKATQSAQLRGEHAANSEASNAIDGNRDSNFYHGSCTHSSGQANPWWRVDLLQVYTITSVTITNRGDCCGERISGAEINIGQHLASNGVNNPECSVIGSMATGETKTFHCPAPMIGRYVVTYLPTSESLHLCEVEVNVDKPAAA	-0.194
Banana lectin (Musa acuminata) (protein) MNGAIKVGAWGGNGGSAFDMGPAYRIISVKIFSGDVVDAVDVTFTYYGKTETRHFGGSGGTPHEIVLQEGEYLVGMKGEFGNYHGVVVVGKLGFSTNKKSYGPFGNTGGTPFSLPIAAGKISGFFGRGGDFIDAIGVYLEP	-0.19

Reported glycan array binding signal (z-score) ( Actd5 (Actinidia), P84527 (protein) ISSCNGPCRDLNDCDGQLICIKGKCNDDPQVGTHICRGTTHSHQPGGCKPSGTLTCRGKSYPTYDCSPPVTSSTPAKLTNNDFSEGGDDGGPSECDESYHNNNERIVALSTGWYNGGSRCGKMIRITASNGKSVSAKVVDECDSRHGCDKEHAGQPPCRNNIVDGSNAVWSALGLDKNVGVVDITWSMA ) = -0.319

These data points were gathered from the supplement of paper PMC8728848.
